The reported measurements were obtained from patent US9139585B2.

Tested target: Kir1.1 (ROMK1) (Homo sapiens (Human))
Assay protocol: Electrophysiology Assay (whole cell voltage clamp, IonWorks Quattro)
Format: cell-based
Recorded conditions: read-out: EP Assay IC50
Method: Several assays may be used to measure functional inhibition of the ROMK channel by compounds of the instant invention. One assay that can be used is an electrophysiology assay that measures the electrical current that is generated as potassium permeates through the channel. […] Voltage protocols and current recordings were performed using the IonWorks® HT software/hardware system. […] Current amplitudes were measured using the IonWorks® software. […]
# pIC50 per entry
Friendly reminder that pIC50 comes from taking -log10 of the concentration in mol/L.

{"columns": ["Molecule", "pIC50"],
 "data": [
  ["Cc1c([C@@H](O)CN2C3COCC2CN(CCc2ccc4c(c2)C[C@H](C)OC4=O)C3)ccc2c1COC2=O", 7.49],
  ["Cc1c([C@@H](O)CN2C3COCC2CN(CCc2ccc4c(c2)C[C@@H](C)OC4=O)C3)ccc2c1COC2=O", 7.35],
  ["Cc1c([C@@H](O)CN2C[C@H]3CC[C@@H](C2)N3S(=O)(=O)c2ccc(-n3cnnn3)cc2)ccc2c1COC2=O", 7.27]
]}

Report pIC50 for Cc1c([C@@H](O)CN2CCN(CC(O)c3ccc(-n4cnnn4)nc3)CC2)ccc2c1COC2=O (single isomer, unassigned) [Example 34A] please.
7.46

Queued: Cc1c([C@@H](O)CN2CCN(CC(O)c3ccc(-n4cnnn4)nc3)CC2)ccc2c1COC2=O (single isomer, unassigned) [Example 34B]
7.85

Another molecule to check: COc1cc(C(O)CN2C3COCC2CN(C[C@H](O)c2ccc4c(c2C)COC4=O)C3)ncc1C#N (stereo in doubt) [Example 25]
6.96

Moving on to the next molecule: Cc1c([C@@H](O)CN2C3CCC2C2CCC3N2C(=O)c2ccc(-n3cnnn3)nc2)ccc2c1COC2=O
6.89

Now give it for COc1cc(C(O)CN2C3COCC2CN(C[C@H](O)c2ccc4c(c2C)COC4=O)C3)ncc1C#N (stereo in doubt) [Example 26] too.
7.15

* * *

Measured IC50, listed per entry for reference.
Tested target: Kir1.1 (ROMK1) (Homo sapiens (Human), UniProt P48048)
Sequence (P48048 whole entry, species assumed): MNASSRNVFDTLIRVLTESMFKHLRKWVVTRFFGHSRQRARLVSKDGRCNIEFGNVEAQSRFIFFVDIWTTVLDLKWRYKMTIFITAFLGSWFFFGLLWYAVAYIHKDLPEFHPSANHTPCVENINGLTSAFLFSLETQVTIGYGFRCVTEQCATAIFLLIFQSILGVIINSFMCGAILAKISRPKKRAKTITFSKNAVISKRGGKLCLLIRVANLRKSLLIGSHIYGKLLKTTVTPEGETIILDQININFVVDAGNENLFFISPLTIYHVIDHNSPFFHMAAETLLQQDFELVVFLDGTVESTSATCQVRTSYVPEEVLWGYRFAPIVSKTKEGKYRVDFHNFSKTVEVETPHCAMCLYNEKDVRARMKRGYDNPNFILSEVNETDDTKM
Assay protocol: Electrophysiology Assay (whole cell voltage clamp, IonWorks Quattro)
Assay type: cell-based
Recorded conditions: Chinese hamster ovary cells stably expressing Kir1.1; block during voltage step to 0 mV; read-out: EP Assay IC50
Give the value, in units of nM, as a plain number.

See these solved cases before continuing.
{"columns": ["Molecule", "Readout", "Observed measurement"],
 "data": [
  ["Cc1nc(-n2cnnn2)ccc1[C@@H](O)CN1CCN(C[C@H](O)c2ccc3c(c2C)COC3=O)CC1 (single isomer, unassigned) [Example 36A]", "IC50", 55],
  ["COc1cc(C(O)CN2C3CCC2C2CCC3N2C[C@H](O)c2ccc3c(c2C)COC3=O)ncc1C#N (single isomer, unassigned) [Example 9]", "IC50", 23],
  ["Cc1c([C@@H](O)CN2CCN(C[C@@H](O)c3ccc4c(c3)CCS4(=O)=O)CC2)ccc2c1COC2=O (single isomer, unassigned) [Example 43A]", "IC50", 95]
]}

Record request: IC50 value, item Cc1c([C@@H](O)CN2CCN(C[C@H](O)c3ccc4c(c3)C[C@@H](C)OC4=O)CC2)ccc2c1COC2=O (single isomer, unassigned) [Example 38B]
29
